# target or test system: Intercellular adhesion molecule-1 (ICAM-1) on JY cells (UniProt P05362 28-532, limits assumed)
# Sequence (P05362 28-532 limits assumed): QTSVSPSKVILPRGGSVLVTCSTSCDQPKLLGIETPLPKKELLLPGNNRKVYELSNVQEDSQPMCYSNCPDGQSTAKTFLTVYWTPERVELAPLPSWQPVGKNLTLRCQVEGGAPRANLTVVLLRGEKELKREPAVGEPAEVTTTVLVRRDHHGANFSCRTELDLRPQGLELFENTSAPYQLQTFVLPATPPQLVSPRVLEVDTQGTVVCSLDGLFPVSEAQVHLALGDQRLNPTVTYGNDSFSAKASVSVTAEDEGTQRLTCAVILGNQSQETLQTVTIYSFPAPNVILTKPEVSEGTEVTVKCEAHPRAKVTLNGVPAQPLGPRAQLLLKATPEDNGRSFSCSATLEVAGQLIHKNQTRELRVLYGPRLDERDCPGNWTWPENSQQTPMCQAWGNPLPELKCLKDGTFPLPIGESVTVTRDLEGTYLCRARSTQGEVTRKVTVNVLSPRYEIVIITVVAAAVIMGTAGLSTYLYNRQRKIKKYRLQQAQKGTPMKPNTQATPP
# test description: cell-based or functional assay
Bridge positions count the residues as written; N and C are the ends. Ends that are not written are not given here.
metric name: IC50, inhibition of JY cell aggregation, 360 minute incubation (µM)
# unit: µM | format: bare number

binder	measured number
CLLRMRSAC (disulfide 1-9) [IP02]	480

Moving on to the next binder.
Query IC50, inhibition of JY cell aggregation, 360 minute incubation for CLLRMKSAC (disulfide 1-9) [IP02-K6] 90
